# TARGET_UNDER_TEST: TEAD1 in SK-HEP1 cells (Homo sapiens (Human), UniProt P28347)
# Sequence (P28347 whole entry): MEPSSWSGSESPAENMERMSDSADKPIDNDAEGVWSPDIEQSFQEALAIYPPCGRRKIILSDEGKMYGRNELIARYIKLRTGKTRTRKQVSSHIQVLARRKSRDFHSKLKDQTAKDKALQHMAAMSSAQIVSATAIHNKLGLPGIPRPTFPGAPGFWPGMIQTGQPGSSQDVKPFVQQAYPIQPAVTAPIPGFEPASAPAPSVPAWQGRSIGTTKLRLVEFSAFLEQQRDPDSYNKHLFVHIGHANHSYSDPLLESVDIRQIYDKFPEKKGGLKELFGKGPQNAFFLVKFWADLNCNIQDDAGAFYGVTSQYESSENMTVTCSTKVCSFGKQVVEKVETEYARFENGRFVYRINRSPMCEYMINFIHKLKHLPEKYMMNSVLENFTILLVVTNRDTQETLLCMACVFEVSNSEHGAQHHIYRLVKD
# ASSAY_REMARKS: TEAD degradation in SK-HEP1 cell line (immunofluorescence)
# Assay type: cell-based
# EXPERIMENTAL_PARAMETERS: 24 h incubation, read-out: DC50 SK-HEP1 24 h
RECORDED_METRIC: DC50 (nM)

COMPOUND | TARGET_UNDER_TEST | UNITS_TEXT | DC50
Cc1ncsc1-c1ccc(CNC(=O)[C@@H]2C[C@@H](O)CN2C(=O)[C@@H](NC(=O)COCCOCCOCCOCCOCCOCCNC(=O)c2ccc3c(c2)c2cn(C)nc2n3-c2ccc(C(F)(F)F)cc2)C(C)(C)C)cc1 [Compound 32] | TEAD1 in SK-HEP1 cells (Homo sapiens (Human), UniProt P28347) | nM | 1100
Cn1cc2c3cc(C(=O)NCCOCCOCCOCCOCCNC(=O)COc4ccc5c(c4)CCCN5C(=O)CCl)ccc3n(-c3ccc(C(F)(F)F)cc3)c2n1 [Compound 31] | TEAD1 in SK-HEP1 cells (Homo sapiens (Human), UniProt P28347) | nM | 3500

(a) Cc1ncsc1-c1ccc(CNC(=O)[C@@H]2C[C@@H](O)CN2C(=O)[C@@H](NC(=O)CCCCCCCCCNC(=O)c2ccc3c(c2)c2cn(C)nc2n3-c2ccc(C(F)(F)F)cc2)C(C)(C)C)cc1 [Compound 20]
(b) CC(=O)O[C@@H]1C[C@@H](C(=O)N[C@@H](C)c2ccc(-c3scnc3C)cc2)N(C(=O)[C@@H](NC(=O)CCCCCC(=O)NCCOCCOCCNC(=O)c2ccc3c(c2)c2cn(C)nc2n3-c2ccc(C(F)(F)F)cc2)C(C)(C)C)C1 [Compound 25]
Exercise: Could you determine which record has the numerically smaller DC50? Candidates: a and b When you have decided, please share the label of that item.
Solution: a
